Reference source for all entries: patent US7223755B2

endpoint label: melting point

{"molecule": "CC(C)C[C@@H]1OC(O)[C@H](CCc2ccccc2)NC1=O (stereo partly drawn)", "melting point": "94.1 to 95.8 °C"}
{"molecule": "CC(C)C[C@@H]1OC(O)[C@H](Cc2ccccc2F)NC1=O (stereo partly drawn)", "melting point": "83.9 to 87.9 °C"}
{"molecule": "CC(C)C[C@@H]1OC(O)[C@H](Cc2ccc3ccccc3c2)NC1=O (stereo partly drawn)", "melting point": "86.5 to 88.5 °C"}

Specify reported melting point for the molecule shown: CC(C)C[C@@H]1OC(O)[C@@H](Cc2ccccc2)NC1=O (stereo partly drawn)
130.9 to 131.8 °C

Specify reported melting point for the molecule shown: CC(C)C[C@@H]1OC(O)[C@H](CCCCNC(=O)c2ccccc2)NC1=O (stereo partly drawn)
128.4 to 129 °C

Specify reported melting point for the molecule shown: O=C1N[C@@H](Cc2ccccc2)C(O)O[C@H]1Cc1ccccc1 (stereo partly drawn)
165.5 to 166 °C
